Data provenance is patent US7018989B2.

Recorded CC50, one value per entry.
Test system: MT-4 cells
Experiment: Toxicity to MT-4 cells
Type: cell-based, human
Conditions: Table 6; mean of two or more repeat experiments; read-out: CC50 MT4: CC50 for toxicity to MT-4 cells

Here is how some molecules turned out for CC50.
May I ask what CC50 has been recorded for COC(=O)C(NP(=O)(OCC1C=CC(n2cc(C)c(=O)[nH]c2=O)O1)Oc1ccccc1)C(C)C (stereo not drawn) ? ≥ 250 µM

Note, next up: CCOP(=O)(N[C@@H](C)C(=O)OC)OC[C@@H]1C=C[C@H](n2cc(C)c(=O)[nH]c2=O)O1 (stereo partly drawn) ≥ 250 µM

Please examine the following record next.
May I ask what CC50 has been recorded for CCc1ccc(OP(=O)(N[C@@H](C)C(=O)OC)OCC2C=CC(n3cc(C)c(=O)[nH]c3=O)O2)cc1 (stereo partly drawn) ? > 100 µM

###

Test system: HIV-1
Experiment: microbe, parasite or virus in culture
Conditions: read-out: HIV1 CEM: EC50 for inhibition of HIV-1 in CEM cells; Table 6; mean of two or more repeat experiments
Protocol: Cells were infected with HIV-1 as previously described [Balzarini et al. AIDS (1991), 5, 21–28]. Briefly, 5×10^5 cells per milliliter were infected with HIV-1 or HIV-2 at 100 CCID50 (50% cell culture infective dose) per milliliter of cell suspension. […] After 4 days giant cell formation was recorded microscopically in the HIV-infected cell cultures [CEM], and after 5 days the number of viable cells was determined by trypan blue staining of the HIV-infected cell cultures [MT4]. […]
property_measured: EC50 (nM)
Value expressed in nM; do not type the unit.

May I ask what EC50 has been recorded for Cc1cn([C@H]2C=C[C@@H](CO)O2)c(=O)[nH]c1=O [Compound 268, reference compound] ? 240

Note, next up: Cc1cn(C2C=CC(COP(=O)(NC(C)C(=O)OCCc3ccccc3)Oc3ccccc3)O2)c(=O)[nH]c1=O (centres unmarked) 700

Note, next up: Cc1cn([C@H]2C=C[C@@H](COP(=O)(O)O)O2)c(=O)[nH]c1=O 800

More entries:
May I ask what EC50 has been recorded for COC(=O)C(CC(C)C)NP(=O)(OCC1C=CC(n2cc(C)c(=O)[nH]c2=O)O1)Oc1ccccc1 (centres unmarked) ? 1100

###

Tested on: CEM cells
Assay: Toxicity to CEM cells
Type: cell-based, human
Conditions: Table 6; mean of two or more repeat experiments
Recorded CC50, one value per entry.
Value expressed in µM; do not type the unit.

Here is how some compounds turned out for CC50.
May I ask what CC50 has been recorded for CCCCCCOP(=O)(OCCCCCC)OCC1C=CC(n2cc(C)c(=O)[nH]c2=O)O1 (centres unmarked) ? 36

Note, next up: CCCCCCCCO[PH](=O)OCC1C=CC(n2cc(C)c(=O)[nH]c2=O)O1 (centres unmarked) 90

Please examine the following record next.
May I ask what CC50 has been recorded for COC(=O)C(C)NP(=O)(OC[C@@H]1C=C[C@H](n2cc(C)c(=O)[nH]c2=O)O1)Oc1c(F)c(F)c(F)c(F)c1F (some centres unmarked) ? 115

###

Recorded CC50, one value per entry.
Test system: CEM cells
Test: Toxicity to CEM cells
Format: cell-based, human
Details: Table 6; mean of two or more repeat experiments

Here is how some compounds turned out for CC50.
# get_value(readout= CC50, system= CEM cells) for COC(=O)C(C)NP(=O)(O)OCC1C=CC(n2cc(C)c(=O)[nH]c2=O)O1 (stereo not drawn) [Compound 1129] > 250 µM

Note, next up: CCOP(=O)(N[C@@H](C)C(=O)OC)OC[C@@H]1C=C[C@H](n2cc(C)c(=O)[nH]c2=O)O1 (stereo partly drawn) [Compound 564] ≥ 250 µM

Note, next up: Cc1cn(C2C=CC(COP(=O)(O)NC(CCC(=O)O)C(=O)O)O2)c(=O)[nH]c1=O (stereo not drawn) [Compound 1083] ≥ 250 µM

Note, next up: CCOC(=O)CN(C)P(=O)(OC[C@@H]1C=C[C@H](n2cc(C)c(=O)[nH]c2=O)O1)Oc1ccccc1 (stereo partly drawn) [Compound 1133] ≥ 250 µM

Note, next up: Cc1cn([C@H]2C=C[C@@H](COP(=O)(NC(C)C(=O)OC(C)(C)C)Oc3ccccc3)O2)c(=O)[nH]c1=O (stereo partly drawn) [Compound 893] ≥ 250 µM

More entries:
# get_value(readout= CC50, system= CEM cells) for Cc1cn(C2C=CC(COP(=O)(OCCC#N)Oc3ccccc3)O2)c(=O)[nH]c1=O (stereo not drawn) [Compound 861] ≥ 250 µM

###

Test system: HIV-1
Assay: microbe, parasite or virus in culture
Conditions: read-out: HIV1 CEM: EC50 for inhibition of HIV-1 in CEM cells; Table 6; mean of two or more repeat experiments
Recorded EC50, one value per entry.

Here is how some molecules turned out for EC50.
May I ask what EC50 has been recorded for CCC(NP(=O)(OCC1C=CC(n2cc(C)c(=O)[nH]c2=O)O1)Oc1ccccc1)C(=O)OC (stereo not drawn) ? > 250 µM

Note, next up: CCCCCCOP(=O)(OCCCCCC)OCC1C=CC(n2cc(C)c(=O)[nH]c2=O)O1 (stereo not drawn) > 42 µM

Please examine the following record next.
May I ask what EC50 has been recorded for O=c1ccn(C2C=CC(COP(=O)(OCC(Cl)(Cl)Cl)OCC(Cl)(Cl)Cl)O2)c(=O)[nH]1 (stereo not drawn) ? > 36 µM

###

System: HIV-1
Assay: microbe, parasite or virus in culture
Settings: read-out: HIV1 CEM: EC50 for inhibition of HIV-1 in CEM cells; Table 6; mean of two or more repeat experiments
Recorded EC50, one value per entry.

Here is how some molecules turned out for EC50.
# get_value(readout= EC50, system= HIV-1) for CCCNP(=O)(OCC1C=CC(n2cc(C)c(=O)[nH]c2=O)O1)Oc1ccccc1 (stereo not drawn) > 250 µM

Note, next up: COC(=O)C(C)NP(=O)(OCC1C=CC(n2ccc(=O)[nH]c2=O)O1)Oc1cccc(C(F)(F)F)c1 (stereo not drawn) > 3520 µM

Please examine the following record next.
# get_value(readout= EC50, system= HIV-1) for CCCCCCCCNP(=O)(OCC1C=CC(n2cc(C)c(=O)[nH]c2=O)O1)Oc1ccccc1 (stereo not drawn) > 10 µM

###

System: CEM cells
Assay: Toxicity to CEM cells
Type: cell-based, human
Details: Table 6; mean of two or more repeat experiments
property_measured: CC50

# get_value(readout= CC50, system= CEM cells) for Cc1cn(C2C=CC(COP(=O)(NC(Cc3ccccc3)C(=O)OCc3ccccc3)Oc3ccccc3)O2)c(=O)[nH]c1=O (stereo not shown) [Compound 866] ≥ 250 µM

Note, next up: COC(=O)[C@H](C)NP(=O)(OC)OC[C@@H]1C=C[C@H](n2cc(C)c(=O)[nH]c2=O)O1 (stereo partly shown) [Compound 740] > 250 µM

Note, next up: CCCOP(=O)(N[C@@H](C)C(=O)OC)OC[C@@H]1C=C[C@H](n2cc(C)c(=O)[nH]c2=O)O1 (stereo partly shown) [Compound 326] ≥ 250 µM

More entries:
# get_value(readout= CC50, system= CEM cells) for COC(=O)COP(=O)(OCC1C=CC(n2cc(C)c(=O)[nH]c2=O)O1)Oc1ccccc1 (stereo not shown) [Compound 980] > 250 µM

###

Test: Minimum cytotoxic concentration in MSV assay
Assay type: cell-based
Conditions: Table 6
Recorded MCC MSV: Minimum cytotoxic concentration in MSV assay, one value per entry.

May I ask what MCC MSV: Minimum cytotoxic concentration in MSV assay has been recorded for CCOC(=O)CN(C)P(=O)(OC[C@@H]1C=C[C@H](n2cc(C)c(=O)[nH]c2=O)O1)Oc1ccccc1 (stereo partly drawn) ? >100

Note, next up: COC(=O)CC(NP(=O)(OCC1C=CC(n2cc(C)c(=O)[nH]c2=O)O1)Oc1ccccc1)C(=O)OC (stereo not drawn) >100

Note, next up: COC(=O)COP(=O)(OCC1C=CC(n2cc(C)c(=O)[nH]c2=O)O1)Oc1ccccc1 (stereo not drawn) >100

###

Tested on: HIV-1
Assay: microbe, parasite or virus in culture
Details: read-out: HIV1 CEM: EC50 for inhibition of HIV-1 in CEM cells; Table 6; mean of two or more repeat experiments
Recorded pEC50, one value per entry.
For clarity, pEC50 is expressed as the negative log10 of concentration in mol/L.

Here is how some compounds turned out for pEC50.
May I ask what pEC50 has been recorded for COC(=O)CC(NP(=O)(OCC1C=CC(n2cc(C)c(=O)[nH]c2=O)O1)Oc1ccccc1)C(=O)OC (stereo not shown) ? 6.26

Note, next up: Cc1cn([C@H]2C=C[C@@H](COP(=O)(NC(C)C(=O)OC(C)(C)C)Oc3ccccc3)O2)c(=O)[nH]c1=O (stereo partly shown) 6.07

Note, next up: COC(=O)C(Cc1c[nH]c2ccccc12)NP(=O)(OC[C@@H]1C=C[C@H](n2cc(C)c(=O)[nH]c2=O)O1)Oc1ccccc1 (stereo partly shown) 5.40

Note, next up: Cc1cn(C2C=CC(COP(=O)(OCCC#N)Oc3ccccc3)O2)c(=O)[nH]c1=O (stereo not shown) 5.92

Note, next up: CCOC(=O)C(C)NP(=O)(OCC1C=CC(n2cc(C)c(=O)[nH]c2=O)O1)Oc1ccccc1 (stereo not shown) 7.00

Note, next up: CCCCCCO[PH](=O)OCC1C=CC(n2cc(C)c(=O)[nH]c2=O)O1 (stereo not shown) 6.22

More entries:
May I ask what pEC50 has been recorded for CCCCNP(=O)(OCC1C=CC(n2cc(C)c(=O)[nH]c2=O)O1)OCC(Cl)(Cl)Cl (stereo not shown) ? 3.93

Note, next up: Cc1cn(C2C=CC(COP(=O)(O)O)O2)c(=O)[nH]c1=O (stereo not shown) 6.40

Note, next up: Cc1cn(C2C=CC(COP(=O)(N[C@@H](C)C(=O)OC3CCCCC3)Oc3ccccc3)O2)c(=O)[nH]c1=O (stereo partly shown) 7.19

Note, next up: COC(=O)CCC(NP(=O)(OCC1C=CC(n2cc(C)c(=O)[nH]c2=O)O1)Oc1ccccc1)C(=O)OC (stereo not shown) [Compound 1196] 5.92

Note, next up: COC(=O)C(NP(=O)(OCC1C=CC(n2cc(C)c(=O)[nH]c2=O)O1)Oc1ccccc1)C(C)C (stereo not shown) 4.90

Note, next up: Cc1cn(C2C=CC(COP(=O)(O)NC(CC(=O)O)C(=O)O)O2)c(=O)[nH]c1=O (stereo not shown) 5.80

Note, next up: CCOC(=O)CN(C)P(=O)(OC[C@@H]1C=C[C@H](n2cc(C)c(=O)[nH]c2=O)O1)Oc1ccccc1 (stereo partly shown) 4.12
